TEST_TARGET: PI3 kinase alpha (Homo sapiens, UniProt P42336)
Sequence (P42336 whole entry): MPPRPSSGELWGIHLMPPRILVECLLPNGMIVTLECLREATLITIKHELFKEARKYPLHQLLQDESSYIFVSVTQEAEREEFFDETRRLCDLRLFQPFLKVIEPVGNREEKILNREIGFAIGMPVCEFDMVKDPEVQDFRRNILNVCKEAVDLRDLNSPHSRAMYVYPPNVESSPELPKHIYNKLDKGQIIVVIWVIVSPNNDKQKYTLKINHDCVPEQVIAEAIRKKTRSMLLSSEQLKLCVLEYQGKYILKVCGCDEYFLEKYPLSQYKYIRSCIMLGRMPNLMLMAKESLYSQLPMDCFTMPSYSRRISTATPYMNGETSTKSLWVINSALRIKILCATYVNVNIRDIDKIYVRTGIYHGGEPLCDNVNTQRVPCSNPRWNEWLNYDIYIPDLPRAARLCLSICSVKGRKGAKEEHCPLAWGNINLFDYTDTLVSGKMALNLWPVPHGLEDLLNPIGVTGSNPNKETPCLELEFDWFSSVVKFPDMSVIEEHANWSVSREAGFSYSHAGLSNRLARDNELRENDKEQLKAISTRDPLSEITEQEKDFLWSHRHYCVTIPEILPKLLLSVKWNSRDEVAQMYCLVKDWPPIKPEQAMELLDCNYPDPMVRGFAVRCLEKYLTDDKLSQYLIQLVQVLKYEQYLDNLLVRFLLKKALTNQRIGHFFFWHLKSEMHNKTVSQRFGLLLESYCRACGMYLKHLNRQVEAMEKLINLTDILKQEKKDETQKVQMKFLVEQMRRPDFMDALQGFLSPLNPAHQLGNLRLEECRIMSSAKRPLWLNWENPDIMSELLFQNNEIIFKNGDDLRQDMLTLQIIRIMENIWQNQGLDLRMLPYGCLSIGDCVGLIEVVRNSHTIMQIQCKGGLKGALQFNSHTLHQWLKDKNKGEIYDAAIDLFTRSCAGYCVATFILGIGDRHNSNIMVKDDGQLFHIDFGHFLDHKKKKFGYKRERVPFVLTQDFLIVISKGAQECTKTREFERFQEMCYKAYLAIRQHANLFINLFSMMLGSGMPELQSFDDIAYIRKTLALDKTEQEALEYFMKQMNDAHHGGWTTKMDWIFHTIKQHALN
Sequence (P27986 whole entry partner): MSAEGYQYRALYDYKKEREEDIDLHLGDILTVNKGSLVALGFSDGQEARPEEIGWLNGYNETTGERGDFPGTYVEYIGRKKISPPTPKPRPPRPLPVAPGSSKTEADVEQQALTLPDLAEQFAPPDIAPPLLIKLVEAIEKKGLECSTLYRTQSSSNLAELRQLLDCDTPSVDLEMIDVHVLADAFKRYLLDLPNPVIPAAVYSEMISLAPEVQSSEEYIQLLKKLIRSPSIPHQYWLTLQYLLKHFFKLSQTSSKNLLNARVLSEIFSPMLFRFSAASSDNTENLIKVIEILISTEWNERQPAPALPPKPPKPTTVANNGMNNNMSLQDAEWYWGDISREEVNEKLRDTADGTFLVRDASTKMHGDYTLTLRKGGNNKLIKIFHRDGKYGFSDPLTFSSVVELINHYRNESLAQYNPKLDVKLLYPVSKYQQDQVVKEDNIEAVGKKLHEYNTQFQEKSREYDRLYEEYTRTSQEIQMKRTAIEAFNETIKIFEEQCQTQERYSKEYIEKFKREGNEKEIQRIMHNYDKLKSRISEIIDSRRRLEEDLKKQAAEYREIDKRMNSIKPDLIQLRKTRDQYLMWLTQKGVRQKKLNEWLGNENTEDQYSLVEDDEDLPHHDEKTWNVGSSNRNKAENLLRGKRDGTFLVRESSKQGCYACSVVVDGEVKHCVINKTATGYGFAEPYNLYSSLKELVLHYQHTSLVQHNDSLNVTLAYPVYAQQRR
MEASUREMENT_NOTES: PI3K ATP depletion assay (Biological Method 1, Assay 3)
Format: biochemical
TEST_CONDITIONS: Table 1; Biological Method 1
Procedure: Assay 3: ATP Depletion Assay Compounds to be tested are dissolved in DMSO and directly distributed into a black 384-well plate at 1.25 μL per well. To start the reaction, 25 μL of 10 nM PI3 kinase and 5 μg/mL 1-alpha-phosphatidylinositol (PI) are added into each well followed by 25 μL of 2 μM ATP. […] The stopped reaction is incubated for 5 minutes and the remaining ATP is then detected via luminescence.
ENDPOINT_LABEL: IC50

Sure, the documented IC50 for Nc1ccc(-c2cc(NCc3ccncc3)nc(N3CCOCC3)n2)cn1 is < 10 µM

Sure, the documented IC50 for Nc1ccc(-c2cc(Nc3cnc4ccc(OC(F)(F)F)cc4c3)nc(N3CCOCC3)n2)cn1 is < 10 µM

Sure, the documented IC50 for CS(=O)(=O)Nc1ccc(-c2cc(-c3ccc(N)nc3)nc(N3CCOCC3)n2)cn1 is < 1 µM
